meta.source: BindingDB's records for doi:10.1021/np500581m

# run-description: Induction of p53-dependent growth suppression of human LNZTA3 cells after 72 hrs by MTT assay
For each record, write down the corresponding pIC50.
Answers are plain numbers, as −log10 of the molar value.

CCCCC[C@H](O[C@@H]1O[C@@H]([C@H](O)CO)[C@H](O)[C@H]1OC(C)=O)c1c(O)cc2c(c1O)C(=O)c1c(O)cc(O)cc1C2=O: 5.21

Next compound, pIC50 to be filled in.
Exercise: What value of pIC50 has been recorded for this entry: CCCCC[C@H](O[C@@H]1O[C@@H]([C@H](O)CO)[C@H](O)[C@H]1O)c1c(O)cc2c(c1O)C(=O)c1c(O)cc(O)cc1C2=O
Key: 5.21
